What DC50 was measured for each of the following?
Target: BRD9 (Homo sapiens)
Sequence (Q9H8M2 1-597): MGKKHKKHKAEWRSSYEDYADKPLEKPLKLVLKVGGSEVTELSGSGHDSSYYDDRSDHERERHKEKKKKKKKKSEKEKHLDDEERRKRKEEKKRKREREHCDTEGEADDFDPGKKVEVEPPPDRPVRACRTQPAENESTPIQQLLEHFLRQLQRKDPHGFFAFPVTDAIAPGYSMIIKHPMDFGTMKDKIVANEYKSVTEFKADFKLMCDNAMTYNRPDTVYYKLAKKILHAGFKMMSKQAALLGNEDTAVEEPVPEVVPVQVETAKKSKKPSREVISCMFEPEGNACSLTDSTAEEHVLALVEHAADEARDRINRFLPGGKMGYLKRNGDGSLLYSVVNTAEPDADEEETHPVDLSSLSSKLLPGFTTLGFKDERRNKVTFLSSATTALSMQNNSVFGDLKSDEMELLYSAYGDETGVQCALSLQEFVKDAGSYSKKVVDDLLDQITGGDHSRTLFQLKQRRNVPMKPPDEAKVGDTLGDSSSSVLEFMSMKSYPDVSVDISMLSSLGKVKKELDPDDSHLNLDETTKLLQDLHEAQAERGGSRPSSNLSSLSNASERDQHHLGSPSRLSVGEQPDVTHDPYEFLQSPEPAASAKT
Experiment: Degradation of BRD9 (IF), immunofluorescence in MV4-11 cells, 24 hours (Assay Protocol 2)
Assay type: cell-based
Design: A suspension of MV4-11 cells (ATCC CRL-9591) was prepared; host or cells: MV4-11
Conditions: Assay protocol 2; BRD9 degradation; read-out: DC50

Answered cases to consult:
Molecule	Measurement Target	DC50
COc1cc(-c2cn(C)c(=O)c(C)c2C)cc(OC)c1CN1CCCN(Cc2cccc3c2CCN(C(=O)/C(C#N)=C/C(C)(C)CF)[C@@H]3C)CC1 (single isomer, unassigned)	BRD9 (Homo sapiens)	1.25 to 10 nM
COc1cc(-c2cn(C)c(=O)c(C)c2C)cc(OC)c1CN(C)C(=O)c1ccc2c(c1)CCN(C(=O)/C(C#N)=C/c1cccc(Br)n1)C2C (mixture of isomers)	BRD9 (Homo sapiens)	25 to 1000 nM
COc1cc(-c2cn(C)c(=O)c(C)c2C)cc(OC)c1CN1CCN(Cc2cccc3c2CCN(C(=O)/C(C#N)=C/C2(C)CCCC2)C3C)C2(CC2)C1 (mixture of isomers)	BRD9 (Homo sapiens)	< 1.25 nM
COc1cc(-c2cn(C)c(=O)c(C)c2C)cc(OC)c1CN1CCC(Oc2cccc3c2CCN(C(=O)/C(C#N)=C/C(C)(C)C)C3C)C1 (stereo in doubt)	BRD9 (Homo sapiens)	25 to 1000 nM
COc1cc(-c2cn(C)c(=O)c(C)c2C)cc(OC)c1CN1C[C@H](C)N(Cc2cccc3c2CCN(C(=O)/C(C#N)=C/C(C)(C)CF)C3C(C)C)C[C@H]1C (mixture of isomers)	BRD9 (Homo sapiens)	10 to 25 nM

Field: DC50. Fill in for each record below.
1. COc1cc(-c2cn(C)c(=O)c(C)c2C)cc(OC)c1CN1CCN(Cc2cccc3c2CCN(C(=O)/C(C#N)=C/C2(F)CC2)C3C)CC1 (mixture of isomers)
2. COc1cc(-c2cn(C)c(=O)c(C)c2C)cc(OC)c1CN1CCN(Cc2ccc3c(c2)[C@@H](C)N(C(=O)/C(C#N)=C/C(C)(C)CO)CC3)C2(CC2)C1 (single isomer, unassigned)
3. COc1cc(-c2cn(C)c(=O)c(C)c2C)cc(OC)c1CN1CCN(Cc2cccc3c2CCN(C(=O)/C(C#N)=C/C(C)(C)C)C3)C2(CC2)C1
4. COc1cc(-c2cn(C)c(=O)c(C)c2C)cc(OC)c1CN1CCN(Cc2cccc3c2CCN(C(=O)/C(C#N)=C/C2(C)CCOCC2)[C@@H]3C)C2(CC2)C1 (single isomer, unassigned)

## Result
["< 1.25 nM", "1.25 to 10 nM", "1.25 to 10 nM", "< 1.25 nM"]
